tested on: HCC95; assay: cells; design: CellTiter-Glo 2.0 luminescence proliferation/viability assay, single agents, human tumour cell line panel; conditions: Homo sapiens, HCC95, 96 h; single agent; read-out: IC50 SMACm
readout_type: IC50

Requested field: IC50. Item: CN[C@@H](C)C(=O)Nc1ccc(-c2c(-c3cccnc3OC)nc3cc(C)ccn23)c(C#Cc2ccc3c(C)nccc3c2)n1 [SMACm, BI 891065]
6.09 µM

----------
test system: HCC78; test: cells; set-up: CellTiter-Glo 2.0 luminescence proliferation/viability assay, single agents, human tumour cell line panel; conditions: Homo sapiens, HCC78, 96 h; single agent; read-out: IC50 SMACm
readout_type: IC50 (µM)
Give the value, in units of µM, as a plain number.

I'd like to know its IC50. The compound in question is CN[C@@H](C)C(=O)Nc1ccc(-c2c(-c3cccnc3OC)nc3cc(C)ccn23)c(C#Cc2ccc3c(C)nccc3c2)n1 [SMACm, BI 891065]
5.11

----------
tested on: KE-39; test: cells; parameters: CellTiter-Glo 2.0 luminescence proliferation/viability assay, single agents, human tumour cell line panel; conditions: 96 h; single agent; read-out: IC50 SMACm
readout_type: pIC50
By convention, pIC50 is the negative base-10 log of a molar concentration.

Which measured pIC50 belongs to CN[C@@H](C)C(=O)Nc1ccc(-c2c(-c3cccnc3OC)nc3cc(C)ccn23)c(C#Cc2ccc3c(C)nccc3c2)n1 [SMACm, BI 891065] , tested on KE-39?
5.41

----------
Tested on: NCI-H2030
Experiment: cells
Parameters: CellTiter-Glo 2.0 luminescence proliferation/viability assay, single agents, human tumour cell line panel
Settings: Homo sapiens, NCI-H2030, 96 h; single agent; read-out: IC50 SMACm
Experimental: The effect of BETi, SMACm alone or in combination cell viability was determined using a 96-h CellTiter-Glo2.0 proliferation assay. Cells were seeded in assay plates and placed at 37°C with 5% CO2 for twenty-four hours before treatment. […] Cell viability was measured by luminescence analysis using luminescence read on Envision plate readers (PerkinElmer). […] Cell viability was measured by luminescence analysis using luminescence read on Tecan Plate reader. […]
readout_type: pIC50
Scale explanation: pIC50 corresponds to minus log10 of a concentration expressed in moles per litre.

Param item = CN[C@@H](C)C(=O)Nc1ccc(-c2c(-c3cccnc3OC)nc3cc(C)ccn23)c(C#Cc2ccc3c(C)nccc3c2)n1 [SMACm, BI 891065] ; retrieve measured pIC50.
5.37

----------
tested on: SNU283; experiment: cells; set-up: CellTiter-Glo 2.0 luminescence proliferation/viability assay, single agents, human tumour cell line panel; conditions: 96 h; single agent; read-out: IC50 SMACm
readout_type: IC50 (µM)
Give just the numeric value; µM need not be written.

Dear colleague, I am looking for the recorded IC50 of the following compound: `CN[C@@H](C)C(=O)Nc1ccc(-c2c(-c3cccnc3OC)nc3cc(C)ccn23)c(C#Cc2ccc3c(C)nccc3c2)n1`
3.78

----------
System: C99
Test: cells
Set-up: CellTiter-Glo 2.0 luminescence proliferation/viability assay, single agents, human tumour cell line panel
Conditions: 96 h; single agent; read-out: IC50 SMACm
Description: The effect of BETi, SMACm alone or in combination cell viability was determined using a 96-h CellTiter-Glo2.0 proliferation assay. Cells were seeded in assay plates and placed at 37°C with 5% CO2 for twenty-four hours before treatment. […] Cell viability was measured by luminescence analysis using luminescence read on Envision plate readers (PerkinElmer). […] Cell viability was measured by luminescence analysis using luminescence read on Tecan Plate reader. […]
readout_type: pIC50
Note: pIC50 values are expressed as the negative base-10 logarithm of concentration in M.

Under C99: pIC50 value of `CN[C@@H](C)C(=O)Nc1ccc(-c2c(-c3cccnc3OC)nc3cc(C)ccn23)c(C#Cc2ccc3c(C)nccc3c2)n1` ?
5.42

----------
system: ChaGo-K-1; experiment: cells; parameters: CellTiter-Glo 2.0 luminescence proliferation/viability assay, single agents, human tumour cell line panel; settings: Homo sapiens, ChaGo-K-1, 96 h; single agent; read-out: IC50 SMACm
readout_type: IC50 (µM)
Report only the number, with the unit µM understood.

Recorded IC50 of CN[C@@H](C)C(=O)Nc1ccc(-c2c(-c3cccnc3OC)nc3cc(C)ccn23)c(C#Cc2ccc3c(C)nccc3c2)n1 [SMACm, BI 891065] , please.
5.42

----------
tested on: LU-65; experiment: cells; design: CellTiter-Glo 2.0 luminescence proliferation/viability assay, single agents, human tumour cell line panel; conditions: Homo sapiens, Lu-65, 96 h; single agent; read-out: IC50 SMACm
readout_type: IC50 (µM)
Could you give me the number in µM? Just the number is fine.

Could you tell me which IC50 is on file for CN[C@@H](C)C(=O)Nc1ccc(-c2c(-c3cccnc3OC)nc3cc(C)ccn23)c(C#Cc2ccc3c(C)nccc3c2)n1 [SMACm, BI 891065] ?
4.35

----------
tested on: HGC-27; assay: cells; parameters: CellTiter-Glo 2.0 luminescence proliferation/viability assay, single agents, human tumour cell line panel; conditions: Homo sapiens, HGC-27, 96 h; single agent; read-out: IC50 SMACm
readout_type: IC50 (nM)
Please state the figure in nM; there is no need to write the unit.

// IC50 lookup, key: CN[C@@H](C)C(=O)Nc1ccc(-c2c(-c3cccnc3OC)nc3cc(C)ccn23)c(C#Cc2ccc3c(C)nccc3c2)n1 [SMACm, BI 891065]
2890

----------
test system: KM12; experiment: cells; design: CellTiter-Glo 2.0 luminescence proliferation/viability assay, single agents, human tumour cell line panel; details: Homo sapiens, KM12, 96 h; single agent; read-out: IC50 SMACm
readout_type: pIC50
Keep it numeric: pIC50 is minus log10 of the concentration in mol/L.

If you can, please state the reported pIC50 value of `CN[C@@H](C)C(=O)Nc1ccc(-c2c(-c3cccnc3OC)nc3cc(C)ccn23)c(C#Cc2ccc3c(C)nccc3c2)n1` .
5.13

----------
system: SW900; assay: cells; set-up: CellTiter-Glo 2.0 luminescence proliferation/viability assay, single agents, human tumour cell line panel; conditions: Homo sapiens, SW900, 96 h; single agent; read-out: IC50 SMACm
readout_type: IC50 (nM)
Provide only the numeric value, understood in nM.

Please report the recorded IC50 for CN[C@@H](C)C(=O)Nc1ccc(-c2c(-c3cccnc3OC)nc3cc(C)ccn23)c(C#Cc2ccc3c(C)nccc3c2)n1 [SMACm, BI 891065] .
1780

----------
Test system: KM12C
Experiment: cells
Set-up: CellTiter-Glo 2.0 luminescence proliferation/viability assay, single agents, human tumour cell line panel
Settings: Homo sapiens, KM12C, 96 h; single agent; read-out: IC50 SMACm
Procedure: The effect of BETi, SMACm alone or in combination cell viability was determined using a 96-h CellTiter-Glo2.0 proliferation assay. Cells were seeded in assay plates and placed at 37°C with 5% CO2 for twenty-four hours before treatment. […] Cell viability was measured by luminescence analysis using luminescence read on Envision plate readers (PerkinElmer). […] Cell viability was measured by luminescence analysis using luminescence read on Tecan Plate reader. […]
readout_type: pIC50
Conceptually, pIC50 converts a concentration in mol/L into minus its log10.

Report pIC50 for CN[C@@H](C)C(=O)Nc1ccc(-c2c(-c3cccnc3OC)nc3cc(C)ccn23)c(C#Cc2ccc3c(C)nccc3c2)n1 [SMACm, BI 891065] please.
5.28

----------
system: SNU1411; experiment: cells; set-up: CellTiter-Glo 2.0 luminescence proliferation/viability assay, single agents, human tumour cell line panel; settings: 96 h; single agent; read-out: IC50 SMACm
readout_type: pIC50
Scale: negative log10 of molar concentration, which is what pIC50 denotes.

Consider the molecule `CN[C@@H](C)C(=O)Nc1ccc(-c2c(-c3cccnc3OC)nc3cc(C)ccn23)c(C#Cc2ccc3c(C)nccc3c2)n1` and give its measured pIC50.
5.31

----------
test system: MDST8; experiment: cells; set-up: CellTiter-Glo 2.0 luminescence proliferation/viability assay, single agents, human tumour cell line panel; conditions: MDST8, 96 h; single agent; read-out: IC50 SMACm
readout_type: IC50 (µM)
Just the number in µM, nothing appended.

Name the reported IC50 value associated with the compound `CN[C@@H](C)C(=O)Nc1ccc(-c2c(-c3cccnc3OC)nc3cc(C)ccn23)c(C#Cc2ccc3c(C)nccc3c2)n1`
4.78

----------
System: SW1116
Test: cells
Design: CellTiter-Glo 2.0 luminescence proliferation/viability assay, single agents, human tumour cell line panel
Conditions: Homo sapiens, SW 1116, 96 h; single agent; read-out: IC50 SMACm
Experimental: The effect of BETi, SMACm alone or in combination cell viability was determined using a 96-h CellTiter-Glo2.0 proliferation assay. Cells were seeded in assay plates and placed at 37°C with 5% CO2 for twenty-four hours before treatment. […] Cell viability was measured by luminescence analysis using luminescence read on Envision plate readers (PerkinElmer). […] Cell viability was measured by luminescence analysis using luminescence read on Tecan Plate reader. […]
readout_type: pIC50
Worth noting: pIC50 values are minus log10 of concentrations stated in mol/L.

Data request, read-out pIC50, for `CN[C@@H](C)C(=O)Nc1ccc(-c2c(-c3cccnc3OC)nc3cc(C)ccn23)c(C#Cc2ccc3c(C)nccc3c2)n1`
5.35
